target: Recombinant human MMP-2 (Homo sapiens); construct: made in house; experiment: biochemical; details: fluorogenic MCA-peptide substrate, pH 7.5, room temperature; read-out: MMP-2 IC50
Sequence (P08253 110-660): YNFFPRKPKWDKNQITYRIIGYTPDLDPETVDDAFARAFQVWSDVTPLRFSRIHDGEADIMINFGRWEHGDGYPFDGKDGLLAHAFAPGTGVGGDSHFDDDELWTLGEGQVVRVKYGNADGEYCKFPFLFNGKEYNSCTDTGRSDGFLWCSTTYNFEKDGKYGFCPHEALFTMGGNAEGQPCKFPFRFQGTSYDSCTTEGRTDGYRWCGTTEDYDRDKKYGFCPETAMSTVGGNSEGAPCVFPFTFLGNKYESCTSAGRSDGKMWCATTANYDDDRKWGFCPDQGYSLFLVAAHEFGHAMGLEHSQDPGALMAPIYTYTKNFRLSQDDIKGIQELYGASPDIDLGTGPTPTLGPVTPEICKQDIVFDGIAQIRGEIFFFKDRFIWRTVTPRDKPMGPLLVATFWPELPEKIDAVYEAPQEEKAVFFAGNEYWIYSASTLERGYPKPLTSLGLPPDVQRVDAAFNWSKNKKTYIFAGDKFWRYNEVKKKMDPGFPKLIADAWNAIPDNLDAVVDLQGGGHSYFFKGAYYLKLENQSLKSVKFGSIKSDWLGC
Counter-ions that a name gives are not always drawn.
Threshold check on IC50: strictly below 300 nM is Condition met; on or above 300 nM is Condition not met.

Please determine if C#CCN1CCC(C(=O)NO)(S(=O)(=O)c2ccc(N3CCC(C(=O)c4ccc(Cl)cc4)CC3)cc2)CC1 [Example 153] is below 300 nM in terms of IC50.
Condition met

Please determine if O=C(NO)C1(S(=O)(=O)c2ccc(N3CCC(c4ccc(F)cc4)CC3)cc2)CCN(CC2CC2)CC1 [Example 263] is below 300 nM in terms of IC50.
Condition met

Please determine if COCCc1sc(CC(=O)C2CCN(c3ccc(S(=O)(=O)C4(C(=O)NO)CCOCC4)cc3)CC2)nc1C [Example 374] is below 300 nM in terms of IC50.
Condition not met

Please determine if COCCN1CCC(C(=O)NO)(S(=O)(=O)c2ccc(N3CCC(c4ccc(F)cc4)CC3)cc2)CC1 [Example 262] is below 300 nM in terms of IC50.
Condition met

Please determine if CCN1CCC(C(=O)NO)(S(=O)(=O)c2ccc(N3CCC(C(=O)c4ccc(OC)cc4)CC3)cc2)CC1 [Example 194] is below 300 nM in terms of IC50.
Condition not met

Please determine if COCCN1CCC(C(=O)NO)(S(=O)(=O)c2ccc(N3CCC(C(=O)c4ccc(CC(C)C)cc4)CC3)cc2)CC1 [Example 218] is below 300 nM in terms of IC50.
Condition met

Please determine if COCCN1CCC(C(=O)NO)(S(=O)(=O)c2ccc(N3CCC(C(=O)c4ccc(OC)cc4)CC3)cc2)CC1 [Example 156] is below 300 nM in terms of IC50.
Condition not met

Please determine if CCN1CCC(C(=O)NO)(S(=O)(=O)c2ccc(N3CCC(C(=O)c4ccc(NC)cc4)CC3)cc2)CC1 [Example 172] is below 300 nM in terms of IC50.
Condition not met

Please determine if CCN1CCC(C(=O)NO)(S(=O)(=O)c2ccc(N3CCC(C(=O)c4ccc(CC5CC5)cc4)CC3)cc2)CC1 [Example 254] is below 300 nM in terms of IC50.
Condition met

Please determine if C[C@@H]1C[C@H](C)CN(C(=O)C2CCN(c3ccc(S(=O)(=O)C4(C(=O)NO)CCNCC4)cc3)CC2)C1 [Example 74, monohydrochloride] is below 300 nM in terms of IC50.
Condition not met

Please determine if Cc1ccc(N2CCN(C(=O)C3CCN(c4ccc(S(=O)(=O)C5(C(=O)NO)CCOCC5)cc4)CC3)CC2)c(C)c1 [Example 9] is below 300 nM in terms of IC50.
Condition not met

Please determine if CCc1ccc(C(=O)C2CCN(c3ccc(S(=O)(=O)C4(C(=O)NO)CCN(S(C)(=O)=O)CC4)cc3)CC2)cc1 [Example 220] is below 300 nM in terms of IC50.
Condition met

Please determine if COCCN1CCC(C(=O)NO)(S(=O)(=O)c2ccc(N3CCC(C(=O)c4ccc(CCC(C)C)cc4)CC3)cc2)CC1 [Example 246] is below 300 nM in terms of IC50.
Condition not met

Please determine if O=C(NO)C1(S(=O)(=O)c2ccc(N3CCC(N4CCc5ccccc54)CC3)cc2)CCOCC1 [Example 383] is below 300 nM in terms of IC50.
Condition not met
